Target: AgLsb4
Assay: SPOT peptide array binding signal intensity (averaged, normalized) (arbitrary units (background-subtracted, floor 0; scale differs between SH3 domains)); higher = stronger binding of the SH3 domain to the peptide
Cut-off 600 on SPOT peptide array binding signal intensity, inclusive. At or above means met; below means not met.

>>> class("DTIDNVKSKIQDKEG")
"not met"
>>> class("PSTMDFPKLPSFQNS")
"not met"
>>> class("AERNYAPRLPRRETS")
"met"
>>> class("VKPRQLFPIPLNKVD")
"not met"
>>> class("RPVPRRPSQPLNTLS")
"met"
>>> class("GKLKHIPRRPYEIER")
"not met"
>>> class("KFIPSRPAPKPPSSA")
"not met"
>>> class("HKVLRPFLLRRLKKD")
"not met"
>>> class("LKRITSPPLPPRADS")
"met"
>>> class("NLKKRPPTAPQRKIS")
"not met"
>>> class("RLSRLLLSLPPESFT")
"not met"
>>> class("QLMKNLPKIPLLNDI")
"not met"
>>> class("DGNEEKPLLPTRPNK")
"met"
>>> class("VGFRLALKFPSRITG")
"met"
